Biological target: BasE (Acinetobacter baumannii, UniProt A0A0D5YGP3)
Assay: Fluorescence polarization displacement assay, BasE-AB900
Assay type: binding, A. baumannii AB900
Details: read-out: KD (FP) of the fluorescent probe
ASSAY_METRIC: pKd
Quick note: pKd means taking -log10 of the concentration in moles per liter.

Given the entry Nc1ncnc2c1ncn2[C@@H]1O[C@H](COS(=O)(=O)NC(=O)c2ccccc2O)[C@@H](O)[C@H]1OCCOCCOCCNC(=O)c1ccc2c(c1)C(=O)OC21c2ccc(O)cc2Oc2cc(O)ccc21 , report its measured pKd.
6.84
